- tgt: Complement component 3 (C3) (Homo sapiens) (UniProt P01024+P01024)
- Sequence (P01024 23-667, chain 1 of 2): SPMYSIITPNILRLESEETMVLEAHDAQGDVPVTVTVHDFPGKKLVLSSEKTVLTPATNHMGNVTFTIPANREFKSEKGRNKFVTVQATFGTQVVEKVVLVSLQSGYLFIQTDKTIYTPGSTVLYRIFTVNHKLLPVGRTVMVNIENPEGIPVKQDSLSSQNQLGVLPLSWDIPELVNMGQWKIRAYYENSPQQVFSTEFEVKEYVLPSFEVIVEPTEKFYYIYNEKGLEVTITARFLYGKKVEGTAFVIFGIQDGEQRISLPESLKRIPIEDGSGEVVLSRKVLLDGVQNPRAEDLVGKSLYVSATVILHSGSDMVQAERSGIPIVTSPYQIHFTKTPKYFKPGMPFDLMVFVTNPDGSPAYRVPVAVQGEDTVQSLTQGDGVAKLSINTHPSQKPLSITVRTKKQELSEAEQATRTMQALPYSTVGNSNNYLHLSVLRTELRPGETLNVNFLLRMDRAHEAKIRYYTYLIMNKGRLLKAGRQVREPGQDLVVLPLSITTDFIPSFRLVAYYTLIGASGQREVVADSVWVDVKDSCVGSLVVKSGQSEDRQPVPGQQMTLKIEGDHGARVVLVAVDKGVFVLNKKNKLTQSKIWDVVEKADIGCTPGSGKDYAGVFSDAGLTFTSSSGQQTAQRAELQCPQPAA
- Sequence (P01024 672-1663, chain 2 of 2): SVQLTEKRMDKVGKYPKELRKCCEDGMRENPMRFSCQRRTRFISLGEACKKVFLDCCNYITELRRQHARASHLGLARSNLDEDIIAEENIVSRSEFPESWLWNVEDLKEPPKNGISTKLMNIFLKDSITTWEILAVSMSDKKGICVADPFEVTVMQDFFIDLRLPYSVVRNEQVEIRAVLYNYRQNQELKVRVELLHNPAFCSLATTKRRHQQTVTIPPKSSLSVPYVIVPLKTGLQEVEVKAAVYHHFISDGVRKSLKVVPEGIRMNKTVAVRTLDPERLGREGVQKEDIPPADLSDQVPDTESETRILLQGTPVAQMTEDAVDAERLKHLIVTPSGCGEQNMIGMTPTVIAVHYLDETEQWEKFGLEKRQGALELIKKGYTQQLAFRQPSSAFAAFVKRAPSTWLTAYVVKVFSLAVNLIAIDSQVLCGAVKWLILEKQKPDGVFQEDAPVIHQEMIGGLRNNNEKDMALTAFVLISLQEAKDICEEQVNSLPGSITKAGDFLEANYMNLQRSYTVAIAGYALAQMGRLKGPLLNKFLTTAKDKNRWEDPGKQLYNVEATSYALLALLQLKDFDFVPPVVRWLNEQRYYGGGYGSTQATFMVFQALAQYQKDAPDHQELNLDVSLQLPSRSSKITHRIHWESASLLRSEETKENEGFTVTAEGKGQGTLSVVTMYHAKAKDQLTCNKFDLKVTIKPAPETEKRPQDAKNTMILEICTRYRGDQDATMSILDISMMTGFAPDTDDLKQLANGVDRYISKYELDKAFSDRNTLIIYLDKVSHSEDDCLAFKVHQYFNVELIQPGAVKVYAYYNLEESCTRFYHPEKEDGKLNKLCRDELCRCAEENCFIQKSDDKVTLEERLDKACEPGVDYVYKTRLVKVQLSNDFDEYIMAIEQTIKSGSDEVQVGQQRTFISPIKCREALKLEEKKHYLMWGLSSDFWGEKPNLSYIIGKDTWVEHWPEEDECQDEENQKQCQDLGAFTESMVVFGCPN
- method: filter
- experimental.conditions: all P = NapdU, U1 = 2'-OMe-U; 2'-OMe at 1,2,3,5,7,9,10,13,19,20,22-28; 3'-3' idT; SB18T0.01, 37C
measured.endpoint: Kd (nM)
Your answer should be a plain number; it is taken to be in nM.

Asked: Specify Kd for UGGUGACUCAAUAGUCCGUACAUUCCCA [8491-94_139] , system Complement component 3 (C3) (Homo sapiens) (UniProt P01024+P01024).
Given back: 26.7

----------
- tgt: Complement component 3 (C3) (Homo sapiens) (UniProt P01024+P01024)
- method: filter
- experimental.conditions: all U = NapdU; C3-spacer replaces A21; 3'-3' idT; SB18T0.01, 37C
measured.endpoint: pKd
Scale explanation: pKd corresponds to minus log10 of a concentration expressed in moles per litre.

Asked: Using known records, supply pKd for CCGGUGACUCAAUAGUCCGUCGUUCCCGG [8491-94_45]
Given back: 6.64
